system: SK-BR-3; assay: Antiproliferative activity against human SKBR3 cells; assay type: functional, cell-based
pIC50: −log10 of the molar value. Numbered stars: 1 amine (or outer) side, 2 acyl side, 3 side chain; on linkers, the order of the positions; unused ones are H or OH. Square brackets hold non-standard residues; d marks the D form. Peptide text beside a SMILES is read from it. * marks the point of attachment. ξ: configuration not given here. X1 = CCC(=O)C[C@H](O)C[C@@H](C)C[C@H](N[*:1])C(=O)[*:2]; Nva(5-pentanoyl) = CCCCC(=O)CCC[C@H](N)C(=O)O; NH((S)CH(Me)CH2NHC2H4OH) = C[C@@H](CNCCO)N*; Gly(octyl) = CCCCCCCC[C@H](N)C(=O)O; Aib = CC(C)(N)C(=O)O; Butyryl = CCCC(=O)*; ξP = O=C(O)C1CCCN1; βAla = NCCC(=O)O
The molecules listed here are annotated with their pIC50.

Some molecules with known pIC50 results, for comparison:
| MOLECULE | TEST TARGET | ASSAY VALUE |
| --- | --- | --- |
| CCCCCCCC[C@H](NC(=O)C(C)(C)NC(=O)C(C)(C)NC(=O)[C@H](CCCC(=O)CCCC)NC(=O)C1CCCN1C(=O)CCC)C(=O)N[C@@H](CC(C)C)C(=O)N[C@@H](C)C(=O)N[C@@H](CC(C)C)C(=O)NCCC(=O)N[C@@H](C)CNCCO (stereo partly drawn) (Butyryl-[ξP][Nva(5-pentanoyl)][Aib][Aib][Gly(octyl)]LAL[βAla]-{NH((S)CH(Me)CH2NHC2H4OH)}) | SK-BR-3 | < 6.00 |
| CCCC(=O)N1CCC[C@H]1C(=O)N[C@@H](C[C@H](C)C[C@@H](O)CC(=O)CC)C(=O)NC(C)(C)C(=O)NC(C)(C)C(=O)N[C@H](C(=O)N[C@@H](CC(C)C)C(=O)NC(C)(C)C(=O)N[C@@H](CC(C)C)C(=O)NCCC(=O)N[C@@H](C)CNCCO)[C@@H](C)CC (Butyryl-P[X1][Aib][Aib]IL[Aib]L[βAla]-{NH((S)CH(Me)CH2NHC2H4OH)}) | SK-BR-3 | < 6.00 |

As a next step, examine the molecule that follows.
# input Provide one value: measured pIC50 of CCCCCCCC[C@H](NC(=O)C(C)(C)NC(=O)C(C)(C)NC(=O)[C@H](CCC(=O)O)NC(=O)[C@@H]1CCCN1C(=O)CCC)C(=O)N[C@@H](CC(C)C)C(=O)NC(C)(C)C(=O)N[C@@H](CC(C)C)C(=O)NCCC(=O)N[C@@H](C)CNCCO (Butyryl-PE[Aib][Aib][Gly(octyl)]L[Aib]L[βAla]-{NH((S)CH(Me)CH2NHC2H4OH)})
# output < 5.00
